- Experimental System: human NPR1 (Homo sapiens, UniProt P16066)
- Construct: host or cells: CHO-K1
- Sequence (P16066 33-1061): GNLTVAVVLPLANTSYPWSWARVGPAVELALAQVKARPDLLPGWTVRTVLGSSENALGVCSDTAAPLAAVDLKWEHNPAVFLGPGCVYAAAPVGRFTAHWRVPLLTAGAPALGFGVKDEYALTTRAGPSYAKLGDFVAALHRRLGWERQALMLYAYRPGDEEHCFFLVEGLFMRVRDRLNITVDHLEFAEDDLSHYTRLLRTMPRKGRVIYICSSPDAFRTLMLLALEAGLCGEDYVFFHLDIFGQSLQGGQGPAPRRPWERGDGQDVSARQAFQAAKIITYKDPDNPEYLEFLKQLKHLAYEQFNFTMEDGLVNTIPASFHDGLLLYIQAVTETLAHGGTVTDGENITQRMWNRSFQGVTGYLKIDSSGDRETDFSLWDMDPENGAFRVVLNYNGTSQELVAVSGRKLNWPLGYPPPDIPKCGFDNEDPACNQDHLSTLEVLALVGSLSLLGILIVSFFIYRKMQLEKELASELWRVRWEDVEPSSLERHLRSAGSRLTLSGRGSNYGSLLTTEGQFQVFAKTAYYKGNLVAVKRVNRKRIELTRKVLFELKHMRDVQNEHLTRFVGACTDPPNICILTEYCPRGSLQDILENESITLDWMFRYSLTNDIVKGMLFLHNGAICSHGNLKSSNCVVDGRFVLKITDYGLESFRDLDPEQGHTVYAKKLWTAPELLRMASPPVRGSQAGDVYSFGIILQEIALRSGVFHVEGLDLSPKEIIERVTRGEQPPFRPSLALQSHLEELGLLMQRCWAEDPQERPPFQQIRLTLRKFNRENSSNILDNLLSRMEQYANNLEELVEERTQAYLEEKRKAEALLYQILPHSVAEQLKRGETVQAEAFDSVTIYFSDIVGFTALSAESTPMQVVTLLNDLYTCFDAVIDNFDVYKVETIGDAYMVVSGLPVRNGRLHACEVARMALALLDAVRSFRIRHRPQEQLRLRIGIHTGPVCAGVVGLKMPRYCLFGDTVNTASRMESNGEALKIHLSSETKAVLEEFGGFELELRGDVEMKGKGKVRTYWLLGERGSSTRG
- Assay Protocol: Cellular cGMP production assay, human NPR1 expressing CHO-K1 cells (CisBio HTRF)
- Type: cell-based
- Condition Info: cGMP production, 30 min at 37° C., 12-point dose-response from 30 μM

{"columns": ["Compound", "Experimental System", "AC50 (nM)"],
 "data": [
  ["CC[C@H]([C@H]1CC[C@H](C(=O)O)CC1)N(C)c1nc2c(c(N[C@@H](CN3CCC[C@H](C)C3)c3cnn(C)c3)n1)C[C@@H](c1ccccc1F)CC2 [Compound 141]", "human NPR1 (Homo sapiens, UniProt P16066)", 888],
  ["CC[C@@H](Nc1nc2c(c(N[C@@H](CN3CCCC3)c3ccccc3)n1)C[C@H](c1ccccc1)CC2)[C@H]1CC[C@H](C(=O)O)CC1 [Compound 85]", "human NPR1 (Homo sapiens, UniProt P16066)", 285],
  ["CC[C@@H](N(C)c1nc2c(c(N[C@@H](CN3CCC[C@H](C)C3)c3ccnn3C)n1)C[C@H](c1cccc(F)c1)CC2)C12CC(C(=O)O)(C1)C2 [Compound 155]", "human NPR1 (Homo sapiens, UniProt P16066)", 1290]
]}

---

- Experimental System: monkey NPR1 (Macaca fascicularis, UniProt A0A7N9DBT9)
- Sequence (A0A7N9DBT9 entry or part of it): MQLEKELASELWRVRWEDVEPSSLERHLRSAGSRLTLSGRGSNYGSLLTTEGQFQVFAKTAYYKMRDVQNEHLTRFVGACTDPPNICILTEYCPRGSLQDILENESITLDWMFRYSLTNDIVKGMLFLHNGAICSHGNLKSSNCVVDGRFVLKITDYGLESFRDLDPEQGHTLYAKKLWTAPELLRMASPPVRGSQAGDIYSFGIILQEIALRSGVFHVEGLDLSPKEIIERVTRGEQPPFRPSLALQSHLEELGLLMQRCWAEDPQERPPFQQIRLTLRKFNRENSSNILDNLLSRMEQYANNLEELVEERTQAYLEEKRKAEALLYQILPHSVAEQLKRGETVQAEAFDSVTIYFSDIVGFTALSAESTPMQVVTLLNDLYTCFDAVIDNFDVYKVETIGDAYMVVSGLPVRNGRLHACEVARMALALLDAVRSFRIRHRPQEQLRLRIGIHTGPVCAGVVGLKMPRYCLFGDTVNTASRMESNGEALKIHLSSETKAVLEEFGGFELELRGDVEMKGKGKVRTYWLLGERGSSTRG
- Assay Protocol: Cellular cGMP production assay, monkey NPR1 expressing CHO-K1 cells (CisBio HTRF)
- Assay type: cell-based
Threshold 200 nM. AC50 below it: t. AC50 at it or above: f.

{"columns": ["Compound", "Experimental System", "Class"],
 "data": [
  ["CC[C@H](N(C)c1nc2c(c(N[C@@H](CN3C4CCCC3CC4)c3cnn(C)c3)n1)C[C@](C)(c1ccccc1)CC2)C12CC(C(=O)O)(C1)C2", "monkey NPR1 (Macaca fascicularis, UniProt A0A7N9DBT9)", "f"],
  ["CC[C@@H](Nc1nc2c(c(N[C@@H](CN3C4CCCC3CCC4)c3cnn(CC)c3)n1)C[C@H](c1ccccc1)CC2)[C@H]1CC[C@H](C(=O)O)CC1", "monkey NPR1 (Macaca fascicularis, UniProt A0A7N9DBT9)", "t"],
  ["CC[C@H]([C@H]1CC[C@H](C(=O)O)CC1)N(C)c1nc2c(c(N[C@@H](CN3C4CCCC3CC4)c3cnc(C)s3)n1)C[C@H](c1cccc(F)c1)CC2", "monkey NPR1 (Macaca fascicularis, UniProt A0A7N9DBT9)", "t"],
  ["CC[C@H]([C@H]1CC[C@H](C(=O)O)CC1)N(C)c1nc2c(c(N[C@@H](CN3C4CCCC3CC(O)C4)c3ccccc3)n1)C[C@H](c1ccccc1)CC2 (stereo partly drawn)", "monkey NPR1 (Macaca fascicularis, UniProt A0A7N9DBT9)", "f"],
  ["CC[C@H]([C@H]1CC[C@H](C(=O)O)CC1)N(C)c1nc2c(c(N[C@@H](CN3C4CCCC3CC4)c3cnn(C)c3)n1)C[C@H](c1cccc(F)c1)CC2", "monkey NPR1 (Macaca fascicularis, UniProt A0A7N9DBT9)", "t"],
  ["CCC(N(C)c1nc2c(c(N[C@@H](CN3C4CCCC3CCC4)c3cnn(C)c3)n1)C[C@H](c1ccccc1)CC2)C12CC(C(=O)O)(C1)C2 (stereo partly drawn)", "monkey NPR1 (Macaca fascicularis, UniProt A0A7N9DBT9)", "t"]
]}

---

- Experimental System: human NPR1 (Homo sapiens, UniProt P16066)
- Construct: host or cells: CHO-K1
- Assay Protocol: Cellular cGMP production assay, human NPR1 expressing CHO-K1 cells (CisBio HTRF)
- Assay type: cell-based
- Condition Info: cGMP production, 30 min at 37° C., 12-point dose-response from 30 μM
- Protocol: Cellular cGMP is a major second messenger that mediates cell activities and is synthesized by activated NPR1 triggered by binding of the natural ligand ANP. […] The assay was performed according to manufacturer's instructions with minor deviations. […] The readout was performed using an Envision plate reader (PerkinElmer) with an excitation wavelength of 317 nm and an emission wavelength of 665 nm. cGMP concentration (Delta F [° %]) was calculated according to the following formulae: […]

{"columns": ["Molecular String", "AC50 (nM)"],
 "data": [
  ["CC[C@H]([C@H]1CC[C@H](C(=O)O)CC1)N(C)c1nc2c(c(N[C@@H](CN3CCCCC3)c3cnn(C)c3)n1)CN(c1cccc(F)c1)CC2", 1430],
  ["CC[C@@H](N(C)c1nc2c(c(N[C@H](CN3CCCCCC3)c3cnn(C)c3)n1)C[C@H](c1cccc(F)c1)CC2)C12CC(C(=O)O)(C1)C2", 72],
  ["CC[C@@H](Nc1nc2c(c(N[C@@H](CN3C4CCCC3CCC4)c3cnn(C)c3)n1)C[C@H](c1ccccc1)CC2)[C@H]1CC[C@H](C(=O)O)CC1", 205]
]}

---

In this section we review reported Human NPR1 Amax (% of ANP) values for a set of compounds.
- Experimental System: human NPR1 (Homo sapiens)
- Construct: host or cells: CHO-K1
- Assay Protocol: Cellular cGMP production assay, human NPR1 expressing CHO-K1 cells (CisBio HTRF)
- Assay type: cell-based
- Condition Info: maximum cGMP production as percentage of the maximum cGMP produced with ANP

{"columns": ["Molecular String", "Human NPR1 Amax (% of ANP)"],
 "data": [
  ["CC[C@H]([C@H]1CC[C@](F)(C(=O)O)CC1)N(C)c1nc2c(c(N[C@H](CN3CCC[C@H](C)C3)c3cnn(C)c3)n1)C[C@H](c1ccccc1)CC2", "96.493 % of ANP"],
  ["CC[C@@H](Nc1nc2c(c(N[C@@H](CN3CCCC4(CCC4)C3)c3cnn(CC)c3)n1)C[C@H](c1ccccc1)CC2)[C@H]1CC[C@H](C(=O)O)CC1", "98.906 % of ANP"],
  ["C[C@@H](Nc1nc2c(c(N[C@@H](CN3CCCC3)c3ccccc3)n1)C[C@H](c1ccccc1)CC2)c1ccc(C(=O)O)cc1", "92.446 % of ANP"],
  ["CC[C@H]([C@H]1CC[C@H](C(=O)O)CC1)N(C)c1nc2c(c(N[C@@H](CN3C4CCCC3CC4)c3cnn(C)c3C)n1)C[C@H](c1cccc(F)c1)CC2", "100.021 % of ANP"],
  ["CC[C@@H](Nc1nc2c(c(N[C@@H](CN3CCCC3)c3ccccc3)n1)CN(c1cccc(F)c1)CC2)[C@H]1CC[C@H](C(=O)O)CC1", "102.315 % of ANP"],
  ["CC[C@@H](Nc1nc2c(c(N[C@@H](CN3CCCCCC3)c3cnn(C)c3)n1)C[C@H](c1cccc(F)c1)CC2)[C@H]1CC[C@H](C(=O)O)CC1", "105.403 % of ANP"],
  ["CC[C@H]([C@H]1CC[C@H](C(=O)O)CC1)N(C)c1nc2c(c(N[C@H](c3cnn(C)c3)C(C)(C)N3CCCCC3)n1)C[C@H](c1ccccc1)CC2", "102.335 % of ANP"],
  ["CC[C@@H](Nc1nc2c(c(N[C@@H](CN3CCC[C@H](C)C3)c3cnn(C)c3)n1)C[C@H](c1ccccc1)CC2)[C@H]1CC[C@H](C(=O)O)CC1", "99.842 % of ANP"],
  ["CC[C@H]([C@H]1CC[C@H](C(=O)O)CC1)N(C)c1nc2c(c(N[C@@H](CN3CCC[C@](C)(O)C3)c3cnn(C)c3)n1)C[C@H](c1ccccc1)CC2", "110.66 % of ANP"],
  ["CC[C@H]([C@H]1CC[C@H](C(=O)O)CC1)N(C)c1nc2c(c(N[C@@H](CN3CCC[C@H](C)C3)c3cnn(C)c3)n1)C[C@H](c1cccc(F)c1)CC2", "120.018 % of ANP"],
  ["CC[C@H]([C@H]1CC[C@H](C(=O)O)CC1)N(C)c1nc2c(c(N[C@@H](CN3C4CCCC3CC4)c3cnn(C)c3)n1)C[C@H](c1ccccc1F)CC2", "94.244 % of ANP"]
]}

---

- Experimental System: monkey NPR1 (Macaca fascicularis)
- Assay Protocol: Cellular cGMP production assay, monkey NPR1 expressing CHO-K1 cells (CisBio HTRF)
- Assay type: cell-based
- Condition Info: cGMP production, monkey NPR1 CHO-K1 cells, 30 min at 37° C., 12-point dose-response from 30 μM; read-out: Monkey NPR1 AC50
- Experimental: Cellular cGMP is a major second messenger that mediates cell activities and is synthesized by activated NPR1 triggered by binding of the natural ligand ANP. […] The assay was performed according to manufacturer's instructions with minor deviations. […] The readout was performed using an Envision plate reader (PerkinElmer) with an excitation wavelength of 317 nm and an emission wavelength of 665 nm. cGMP concentration (Delta F [° %]) was calculated according to the following formulae: […]
In this section we review reported log10 of AC50 values for a set of compounds.
Assay Endpoint: log10 of AC50 (log10 of the value in nM)

{"columns": ["Compound", "Experimental System", "Assay Endpoint", "Recorded Measurement"],
 "data": [
  ["CC[C@H]([C@H]1CC[C@H](C(=O)O)CC1)N(C)c1nc2c(c(N[C@@H](CN3CCCC4(CCOC4)C3)c3cnn(CC)c3)n1)C[C@H](c1ccccc1)CC2 (stereo partly drawn)", "monkey NPR1 (Macaca fascicularis)", "log10 of AC50", 3.12],
  ["CC[C@H]([C@H]1CC[C@H](C(=O)O)CC1)N(C)c1nc2c(c(N[C@@H](CN3CCCCC3)c3cnn(C4CC4)c3)n1)C[C@H](c1ccccc1)CC2", "monkey NPR1 (Macaca fascicularis)", "log10 of AC50", 2.28],
  ["CC[C@@H](Nc1nc2c(c(N[C@@H](CN3CCCCC3)c3cnn(C)c3)n1)CN(c1cccc(F)c1)CC2)[C@H]1CC[C@H](C(=O)O)CC1", "monkey NPR1 (Macaca fascicularis)", "log10 of AC50", 2.15],
  ["CC[C@H]([C@H]1CC[C@H](C(=O)O)CC1)N(C)c1nc2c(c(N[C@@H](CN3CCC[C@H](C)C3)c3ccc(=O)n(C)c3)n1)C[C@H](c1cccc(F)c1)CC2", "monkey NPR1 (Macaca fascicularis)", "log10 of AC50", 2.00],
  ["O=C(O)[C@H]1CC[C@H](C(CC2CC2)Nc2nc3c(c(N[C@@H](CN4CCCC4)c4ccccc4)n2)CC(c2ccccc2)CC3)CC1 (stereo partly drawn)", "monkey NPR1 (Macaca fascicularis)", "log10 of AC50", 2.84],
  ["CC[C@@H](N(C)c1nc2c(c(N[C@@H](CN3CCC[C@H](C)C3)c3cnn(C)c3)n1)C[C@H](c1ccccc1)CC2)C12CC(C(=O)O)(C1)C2", "monkey NPR1 (Macaca fascicularis)", "log10 of AC50", 2.01]
]}
